Data origin: patent EP2070923A1

test: physchem; settings: hplc, formic acid
I'd appreciate it if you could supply chromatographic logP values for the items below.
Give a plain numeric answer without units written out.

### Prompt Read off the recorded chromatographic logP for c1cc(CN=C2NCCO2)cs1
### Response -0.05

### Prompt Read off the recorded chromatographic logP for CCC(N=C1NCCO1)c1ccccn1 (stereo not shown)
### Response -0.01

### Prompt Read off the recorded chromatographic logP for Cn1cccc1CN=C1NCCO1
### Response -0.09

### Prompt Read off the recorded chromatographic logP for CC(N=C1NCCO1)c1ccnc(Cl)c1 (stereo not shown)
### Response 0.02

### Prompt Read off the recorded chromatographic logP for C[C@H](N=C1NCCO1)c1cccs1
### Response 0.33

### Prompt Read off the recorded chromatographic logP for CC(N=C1NCCO1)c1cccs1 (stereo not shown)
### Response 0.28

### Prompt Read off the recorded chromatographic logP for CC(N=C1NCCO1)c1cc2ccccc2o1 (stereo not shown)
### Response 0.93

### Prompt Read off the recorded chromatographic logP for CCC(N=C1NCCO1)c1ccc(C)c(C)n1 (stereo not shown)
### Response 0.06

### Prompt Read off the recorded chromatographic logP for c1csc(CN=C2NCCO2)c1
### Response -0.08

### Prompt Read off the recorded chromatographic logP for c1coc(CN=C2NCCO2)c1
### Response -0.23

### Prompt Read off the recorded chromatographic logP for CCC(N=C1NCCO1)c1ccc(C(F)(F)F)cn1 (stereo not shown)
### Response 0.97

### Prompt Read off the recorded chromatographic logP for CC(C)NC(=S)N1CCOC1=NCc1ccc(Cl)nc1
### Response 3.14

### Prompt Read off the recorded chromatographic logP for C[C@H](N=C1NCCS1)c1cccs1
### Response 0.54
